Molecular target: T1, human SIRPβ isoform 1 (human, UniProt O00241 30-148)
T1 construct: also called Beta; Human SIRPb
T1 sequence (O00241 30-148 limits assumed): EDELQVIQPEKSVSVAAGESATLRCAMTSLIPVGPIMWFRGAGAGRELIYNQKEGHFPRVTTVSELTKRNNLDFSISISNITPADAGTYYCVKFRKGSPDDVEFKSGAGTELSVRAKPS
Test: SPR Koff +/-
assay-metric: binding result

INPUT: Data request, read-out binding result, for antibody 115 (antibody, V domains shown, also called S115) VH: DVQLVESGGGVVRPGESLRLSCAASGFSFSSYAMNWVRQAPGEGLEWVSRINSGGGGTDYAESVKGRFTISRDNSENTLYLQMNSLRAEDTAVYYCAKQYDWNSFFDYWGLGALVTVSS VL: ETVLTQSPATLSVSPGERATLSCRASQTVGSKLAWHQQKPGQAPRLLIYDATNRATGISDRFSGSGSGTDFTLTISSLQTEDSAVYYCQQYYYWPPYRFGGGTKVEIK
OUTPUT: binds

INPUT: Data request, read-out binding result, for antibody 194 (antibody, V domains shown, also called S194) VH: DVQLVESGGGVVRPGESLRLSCAASGFTFRNYGMSWVRQAPGEGLEWVSASSGSGSTYYADSVKGRFTISRDNSKNTLYLQMNSLRAEDTAIYYCAKVTWNNFFDYWGLGTLVTVSS VL: EIVLAQSPDTLSVSPGERATLTCRASQDVAGKLAWYQQKPGQAPRLLIHATSSRADGIPARFSGSGSGTEFTLTITGLQSEDFAVYYCQQHYDWSPLTFGGGTKVEIK
OUTPUT: no binding

INPUT: Data request, read-out binding result, for antibody 173 (antibody, V domains shown, also called S173) VH: DVQLVESGGGVVRPGESLRLSCAASGFAFSDHDMSWVRQGPGEGLEWVAGISLRGGVTWYADSVKGRFTISRDNSKNTLYLRLFSLRTEDTAIYYCARESWNTFFDYWGLGTLVTVSS VL: EIVLTQSPGTLSLSPGETATLSCRASQNVRSNLAWYQQKPGQAPRLLIYDASSRATGIPDRFSGSGSGTDFTLTISSLQSEDFAVYYCQQYGNGPPLTFGGGTKVEIK
OUTPUT: no binding

Cited source: patent US20210363269A1
